MEASURED_ON: GluN1/GluN2B receptors (Rattus norvegicus, UniProt P35439+Q00960)
Sequence (Q00960 27-1482, other chains not shown): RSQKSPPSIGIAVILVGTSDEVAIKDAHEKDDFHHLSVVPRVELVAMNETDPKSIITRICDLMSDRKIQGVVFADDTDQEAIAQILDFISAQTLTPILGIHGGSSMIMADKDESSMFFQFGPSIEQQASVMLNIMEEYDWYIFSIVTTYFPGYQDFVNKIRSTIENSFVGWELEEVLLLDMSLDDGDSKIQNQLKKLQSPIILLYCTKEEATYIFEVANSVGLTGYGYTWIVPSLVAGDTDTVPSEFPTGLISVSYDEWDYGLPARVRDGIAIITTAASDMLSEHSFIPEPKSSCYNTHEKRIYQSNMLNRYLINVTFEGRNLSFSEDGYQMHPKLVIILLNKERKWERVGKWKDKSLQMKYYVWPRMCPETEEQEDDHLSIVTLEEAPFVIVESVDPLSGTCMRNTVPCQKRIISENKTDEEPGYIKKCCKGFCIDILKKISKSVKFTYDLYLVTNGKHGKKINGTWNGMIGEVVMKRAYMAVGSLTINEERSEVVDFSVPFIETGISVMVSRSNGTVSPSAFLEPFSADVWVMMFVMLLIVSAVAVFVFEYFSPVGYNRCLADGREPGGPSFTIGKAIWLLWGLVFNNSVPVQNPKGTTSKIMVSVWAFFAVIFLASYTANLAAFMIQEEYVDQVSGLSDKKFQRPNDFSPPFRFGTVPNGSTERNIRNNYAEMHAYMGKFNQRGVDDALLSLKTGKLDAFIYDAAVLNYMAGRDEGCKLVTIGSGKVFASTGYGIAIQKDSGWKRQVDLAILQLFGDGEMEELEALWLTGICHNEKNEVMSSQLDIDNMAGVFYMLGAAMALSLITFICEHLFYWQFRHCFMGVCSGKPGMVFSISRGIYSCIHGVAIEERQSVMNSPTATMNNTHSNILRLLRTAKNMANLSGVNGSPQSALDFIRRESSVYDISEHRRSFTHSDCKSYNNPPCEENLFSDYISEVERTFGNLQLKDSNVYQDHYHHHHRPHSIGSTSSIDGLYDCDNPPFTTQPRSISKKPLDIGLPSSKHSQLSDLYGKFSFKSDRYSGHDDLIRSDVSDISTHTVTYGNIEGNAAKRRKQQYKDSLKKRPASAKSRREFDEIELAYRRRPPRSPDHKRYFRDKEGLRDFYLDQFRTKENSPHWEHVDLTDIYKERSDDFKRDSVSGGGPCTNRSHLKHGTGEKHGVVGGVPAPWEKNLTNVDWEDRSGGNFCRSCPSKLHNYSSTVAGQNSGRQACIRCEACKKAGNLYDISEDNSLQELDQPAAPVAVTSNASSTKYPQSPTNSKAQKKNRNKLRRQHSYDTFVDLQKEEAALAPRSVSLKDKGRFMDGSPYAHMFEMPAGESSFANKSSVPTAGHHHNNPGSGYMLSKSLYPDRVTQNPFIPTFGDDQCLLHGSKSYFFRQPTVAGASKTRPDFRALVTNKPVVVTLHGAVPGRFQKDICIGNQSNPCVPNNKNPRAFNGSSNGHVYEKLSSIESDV
PROTOCOL_TEXT: Patch-clamp: modulation of glutamate-induced currents of recombinant GluN1/GluN2B receptors expressed in HEK293 cells
CONDITION_SET: half-maximal potentiation of currents evoked by 1 µM glutamate; HEK293; mean ± SEM
Procedure: To investigate the effect of compounds 11–23 on the activity of NMDARs, electrophysiological measurements were performed on HEK293 cells that were co-transfected with cDNAs containing genes encoding for the rat GluN1-1a and GluN2B subunits. […] We have evaluated the relationship between oxime derivatives 11–23 and their modulatory effect on recombinant GluN1/GluN2B receptors. […]
METRIC_NAME: EC50

Worked set:
>  <COMPOUND>
CO/N=C(\C)[C@H]1CCC2C3CC=C4C[C@@H](OC(=O)CCCC(=O)O)CC[C@]4(C)C3CC[C@@]21C (stereo partly drawn) [Compound 17]

>  <MEASURED_ON>
GluN1/GluN2B receptors (Rattus norvegicus, UniProt P35439+Q00960)

>  <EC50>
6.1 µM

$$$$
>  <COMPOUND>
C/C(=N\OCc1ccccc1)[C@H]1CCC2C3CC=C4C[C@@H](OC(=O)CCCC(=O)O)CC[C@]4(C)C3CC[C@@]21C (stereo partly drawn) [Compound 21]

>  <MEASURED_ON>
GluN1/GluN2B receptors (Rattus norvegicus, UniProt P35439+Q00960)

>  <EC50>
11.3 µM

$$$$
>  <COMPOUND>
CCO/N=C(\C)[C@H]1CCC2C3CC=C4C[C@@H](OC(=O)CCC(=O)O)CC[C@]4(C)C3CC[C@@]21C (stereo partly drawn) [Compound 22]

>  <MEASURED_ON>
GluN1/GluN2B receptors (Rattus norvegicus, UniProt P35439+Q00960)

>  <EC50>
7 µM

$$$$
>  <COMPOUND>
C/C(=N\O)[C@H]1CCC2C3CC=C4C[C@@H](OC(=O)CCCC(=O)O)CC[C@]4(C)C3CC[C@@]21C (stereo partly drawn) [Compound 11]

>  <MEASURED_ON>
GluN1/GluN2B receptors (Rattus norvegicus, UniProt P35439+Q00960)

>  <EC50>
7.9 µM

$$$$
>  <COMPOUND>
C/C(=N\OCCN1CCOCC1)[C@H]1CCC2C3CC=C4C[C@@H](OC(=O)CCCC(=O)O)CC[C@]4(C)C3CC[C@@]21C (stereo partly drawn) [Compound 13]

>  <MEASURED_ON>
GluN1/GluN2B receptors (Rattus norvegicus, UniProt P35439+Q00960)

>  <EC50>
34.7 µM

$$$$

Query C=CCO/N=C(\C)[C@H]1CCC2C3CC=C4C[C@@H](OC(=O)CCCC(=O)O)CC[C@]4(C)C3CC[C@@]21C (stereo partly drawn) [Compound 20] yields EC50 of 12.6 µM

Query CCO/N=C1\CCC2C3CC=C4C[C@@H](OC(=O)CCCC(=O)O)CC[C@]4(C)C3CC[C@]12C (stereo partly drawn) [Compound 15] yields EC50 of 22.7 µM

Query CCON=C(C)C1CCC2C3CC=C4CC(OC(=O)CCCC(=O)O)CCC4(C)C3CCC12C (stereo not drawn) [Compound 12] yields EC50 of 8.7 µM

Query CCO/N=C(\C)[C@H]1CCC2C3CC=C4C[C@@H](OC(=O)CCCCC(=O)O)CC[C@]4(C)C3CC[C@@]21C (stereo partly drawn) [Compound 23] yields EC50 of 7.5 µM
